# Assayed target: mGAT1 (Mus musculus, UniProt P31648)
# Construct: expressed in transfected cells; host or cells: HEK293
# Test details: MS Binding Assay with NO711 as native MS marker
# Test context: MS Binding Assay, NO711 marker; pKi±SEM; read-out: pK i mGAT1 (converted)
# Description: For compounds with pIC50 ([^3H]GABA uptake assay) or pK i (MS Binding Assays) values close to or above 5.0, these experiments were repeated twice and SEM have been calculated. […]
Assay endpoint: Ki (µM)

> print(dat)
                                   compound  assay.endpoint  result.number
1  COc1ccc(C(O)(CCCN2CCCC(C(=O)O)C2)c2ccc(OC)cc2)cc1 (racemic)              Ki           32.4
2  COc1ccc(C(OCCN2CCCC(C(=O)O)C2)(c2ccc(C#N)cc2)c2ccc(OC)cc2)cc1 (racemic)              Ki           39.8
3  COc1ccc(C(OCCN2CCCC(C(=O)O)C2)(c2ccc(C=O)cc2)c2ccc(OC)cc2)cc1 (racemic)              Ki           38.9

(1) COc1ccc(C(OCCN2CCCC(C(=O)O)C2)(c2ccc(OC)cc2)c2ccc(C(C)=O)cc2)cc1 (racemic)
(2) COc1ccc(C(OCCN2CCCC(C(=O)O)C2)(c2ccc(OC)cc2)c2ccc3nccn3c2)cc1 (racemic)
(3) COc1ccc(C(OCCN2CCC[C@@H](C(=O)O)C2)(c2ccc(C=O)cc2)c2ccc(OC)cc2)cc1 [(R)‐5 a]
INPUT: Order the entries by their reported Ki, beginning at the minimum. Use the labels to give the requested order.
OUTPUT: 3, 1, 2

---

# Assayed target: mGAT1 (Mus musculus, UniProt P31648)
# Test details: [^3H]GABA uptake assay, HEK293 cells expressing mGAT1
# Test context: [^3H]GABA uptake; pIC50±SEM
Assay endpoint: IC50 (µM)

> print(dat)
                                   compound  assay.endpoint   u  result.number
1  COc1ccc(C(OCCN2CCC[C@H](C(=O)O)C2)(c2ccc(C=O)cc2)c2ccc(OC)cc2)cc1 [(S)‐5 a]            IC50  µM           72.4

(P) CCOC(=O)C1CCCN(CCOC(c2ccc(OC)cc2)(c2ccc(OC)cc2)c2ccc3nccn3c2)C1 (racemic) [12 d]
(Q) CCOC(=O)CCNCc1ccc(C(OCCN2CCCC(C(=O)OCC)C2)(c2ccc(OC)cc2)c2ccc(OC)cc2)cc1 (racemic) [12 o]
INPUT: Min IC50? P | Q Choose, then provide that item's label.
OUTPUT: Q
(Q: 25.7 µM, P: 40.7 µM)

(I) COc1ccc(C(OCCN2CCC[C@@H](C(=O)O)C2)(c2ccc(C=O)cc2)c2ccc(OC)cc2)cc1 [(R)‐5 a]
(II) COc1ccc(C(OCCN2CCCC(C(=O)O)C2)(c2ccc(C=O)cc2)c2ccc(OC)cc2)cc1 (racemic) [5 a]
INPUT: Min IC50? I | II Choose, then provide that item's label.
OUTPUT: I

---

# Assayed target: mGAT3 (Mus musculus)
# Sequence (P31649 1-602): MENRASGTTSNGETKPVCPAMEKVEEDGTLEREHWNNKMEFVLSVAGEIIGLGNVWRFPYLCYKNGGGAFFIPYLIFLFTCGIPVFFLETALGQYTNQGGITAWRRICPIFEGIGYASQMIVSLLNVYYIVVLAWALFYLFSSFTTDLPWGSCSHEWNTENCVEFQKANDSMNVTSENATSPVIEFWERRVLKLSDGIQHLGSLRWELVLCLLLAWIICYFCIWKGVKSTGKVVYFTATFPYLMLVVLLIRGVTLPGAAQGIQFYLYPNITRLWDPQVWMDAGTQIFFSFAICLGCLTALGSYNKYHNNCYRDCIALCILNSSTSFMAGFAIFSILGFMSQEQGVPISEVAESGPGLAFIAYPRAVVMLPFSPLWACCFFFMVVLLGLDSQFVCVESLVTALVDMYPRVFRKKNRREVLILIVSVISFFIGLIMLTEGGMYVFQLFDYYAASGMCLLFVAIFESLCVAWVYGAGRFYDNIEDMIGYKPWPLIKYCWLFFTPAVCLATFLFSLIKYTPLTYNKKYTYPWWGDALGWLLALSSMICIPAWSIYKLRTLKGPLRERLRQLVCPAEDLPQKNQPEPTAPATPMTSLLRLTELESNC
# Test details: [^3H]GABA uptake assay, HEK293 cells expressing mGAT3
# Test context: [^3H]GABA uptake; pIC50±SEM
Assay endpoint: IC50 (µM)

> print(dat)
                                   compound        assayed.target  assay.endpoint  result.number
1  CCOC(=O)C1CCCN(CCOC(c2ccc(C=O)cc2)(c2ccc(OC)cc2)c2ccc(OC)cc2)C1 (racemic)  mGAT3 (Mus musculus)            IC50           12.6
2  COc1ccc(C(OCCN2CCCC(C(=O)O)C2)(c2ccc(OC)cc2)c2ccc(C(C)=O)cc2)cc1 (racemic)  mGAT3 (Mus musculus)            IC50           57.5
3  COCc1ccc(C(OCCN2CCCC(C(=O)O)C2)(c2ccc(OC)cc2)c2ccc(OC)cc2)cc1 (racemic)  mGAT3 (Mus musculus)            IC50           30.9

(P) COc1ccc(C(OCCN2CCCC(C(=O)O)C2)(c2ccc(C#N)cc2)c2ccc(OC)cc2)cc1 (racemic)
(Q) CCOC(=O)CCNCc1ccc(C(OCCN2CCCC(C(=O)OCC)C2)(c2ccc(OC)cc2)c2ccc(OC)cc2)cc1 (racemic)
(R) COc1ccc(C(OCCN2CCCC(C(=O)O)C2)(c2ccc(C=O)cc2)c2ccc(OC)cc2)cc1 (racemic)
(S) CCOC(=O)C1CCCN(CCOC(c2ccc(COC)cc2)(c2ccc(COC)cc2)c2ccc(COC)cc2)C1 (racemic)
INPUT: Order the entries by their reported IC50, beginning at the minimum. Use the labels to give the requested order.
OUTPUT: R, Q, P, S

---

# Assayed target: mGAT3 (Mus musculus)
# Construct: expressed in transfected cells; host or cells: HEK293
# Test details: [^3H]GABA uptake assay, HEK293 cells expressing mGAT3
# Type: cell-based
# Test context: HEK293; in presence of 100 μM compound
Assay endpoint: remaining activity at 100 µM (%)

Guide cases for remaining activity at 100 µM, answers given:
> print(dat)
                                   compound        assayed.target  u  result.number
1  CCOC(=O)C1CCCN(CCOC(c2ccc(C#N)cc2)(c2ccc(OC)cc2)c2ccc(OC)cc2)C1 (racemic) [12 g]  mGAT3 (Mus musculus)  %           63.6
2  COCc1ccc(C(OCCN2CCCC(C(=O)O)C2)(c2ccc(COC)cc2)c2ccc(OC)cc2)cc1 (racemic) [5 h]  mGAT3 (Mus musculus)  %           52.2

(I) CCOC(=O)C1CCCN(CCCC(O)(c2ccc(OC)cc2)c2ccc(OC)cc2)C1 (racemic) [12 l]
(II) COc1ccc(C(OCCN2CCCC(C(=O)O)C2)(C(=O)O)c2ccc(OC)cc2)cc1 (racemic) [5 k]
INPUT: Min remaining activity at 100 µM? I | II Choose, then provide that item's label.
OUTPUT: I

---

# Assayed target: mGAT1 (Mus musculus, UniProt P31648)
# Construct: expressed in transfected cells; host or cells: HEK293
# Test details: MS Binding Assay with NO711 as native MS marker
# Test context: in presence of 100 μM compound; read-out: remaining specific NO711 binding (mGAT1)
Assay endpoint: remaining activity at 100 µM (%)

> print(dat)
                                   molecule                        assayed.target  result.number
1  COc1ccc(C(OCCN2CCCC(C(=O)O)C2)(c2ccc(OC)cc2)c2ccc(S(=O)(=O)N(C)C)cc2)cc1 (racemic)  mGAT1 (Mus musculus, UniProt P31648)           62.1
2  CCOC(=O)C1CCCN(CCOC(c2ccc(CNC3(C(=O)OCC)CC3)cc2)(c2ccc(OC)cc2)c2ccc(OC)cc2)C1 (racemic)  mGAT1 (Mus musculus, UniProt P31648)           95.8
3  CCOC(=O)C1CCCN(CCOC(c2ccc(COC)cc2)(c2ccc(COC)cc2)c2ccc(OC)cc2)C1 (racemic)  mGAT1 (Mus musculus, UniProt P31648)           72.9
4  COc1ccc(C(OCCN2CCCC(C(=O)O)C2)(c2ccc(CNCC(=O)O)cc2)c2ccc(OC)cc2)cc1 (racemic)  mGAT1 (Mus musculus, UniProt P31648)           86.2

(1) CCOC(=O)C1CCCN(CCOC(c2ccc(OC)cc2)(c2ccc(OC)cc2)c2ccc(S(=O)(=O)N(C)C)cc2)C1 (racemic)
(2) CCOC(=O)C1CCCN(CCOC(c2ccc(COC)cc2)(c2ccc(OC)cc2)c2ccc(OC)cc2)C1 (racemic)
INPUT: Min remaining activity at 100 µM? 1 | 2 Choose, then provide that item's label.
OUTPUT: 2
(2: 55.3%, 1: 93.8%)
